Species: Rattus norvegicus
Assay: Open TG-GATES - Regimen: Daily Repeat
Assay type: toxicity, organism-based, Sprague-Dawley
Design: regimen Daily Repeat, gender Male, age 6 weeks
Conditions: in vivo, po, 10 mg/kg, […], tissue Blood, route gavage, dose level Low, time 14 day
Documented RBC across a set of compounds
Just the number in x10_4/ul, nothing appended.

Below: 3 compounds and their reported RBC.
Compound | RBC / x10_4/ul
CN(C)CCN(Cc1cccs1)c1ccccn1 | 689.4
CC(C)OC(=O)C(C)(C)Oc1ccc(C(=O)c2ccc(Cl)cc2)cc1 [FENOFIBRATE] | 687.6
CN(C)CCCN1c2ccccc2CCc2ccccc21 [IMIPRAMINE] | 691.6

input: Quick check: RBC of CC1=C(/C=C/C(C)=C/C=C/C(C)=C/CO)C(C)(C)CCC1 [RETINOL] ?
output: 698
